From: patent US7977387B2

tested on: TNF-α; test: Inhibition of TNF-α secretion in LPS stimulated peripheral blood mononuclear cells; format: cell-based; conditions: PBMC; LPS stimulated human peripheral blood mononuclear cells, 18 hours, ELISA; read-out: The median inhibition concentration (IC50, nM) of TNF-α
ASSAY READOUT: IC50 (nM)

Consider the worked cases shown below.
RECORD SMILES | IC50 [nM]
C=CCNC(=O)c1ccc(C)c(C(=O)c2ccc(Nc3ccc(F)cc3F)cc2Cl)c1 | 2.5
Cc1ccc(C(=O)NCC(F)F)cc1C(=O)c1ccc(Nc2ccc(F)cc2F)cc1Cl | 0.4
C=CCNC(=O)Nc1ccc(C)c(C(=O)c2ccc(Nc3ccc(F)cc3F)cc2Cl)c1 | 0.2
CCC(=O)Nc1ccc(C)c(C(=O)c2ccc(Nc3ccc(F)cc3F)cc2Cl)c1 | 0.5
COc1ccc(C(=O)NCCF)cc1C(=O)c1ccc(Nc2ccccc2)cc1Cl | 3.2
COCCNC(=O)c1ccc(C)c(C(=O)c2ccc(Nc3ccccc3N)cc2Cl)c1 | 1

A: CNC(=O)c1ccc(C)c(C(=O)c2ccc(Nc3ccc(Cl)cc3F)cc2Cl)c1
B: Cc1ccc(NC(=O)NC(C)C)cc1C(=O)c1ccc(Nc2ccc(F)cc2F)cc1Cl
stdin: // compare measured IC50 between A and B ; output the lower one Selection: enter the item's label.
stdout: B

====

system: IL-1β; experiment: Inhibition of IL-1β secretion in LPS stimulated peripheral blood mononuclear cells; assay type: cell-based; conditions: PBMC; LPS stimulated human peripheral blood mononuclear cells, 18 hours, ELISA; read-out: The median inhibition concentration (IC50, nM) of IL-1β
ASSAY READOUT: IC50 (nM)

Consider the worked cases shown below.
COMPOUND | UNITS | IC50
Cc1ccc(C(=O)NCCO)cc1C(=O)c1ccc(Nc2ccc(F)cc2Cl)cc1Cl [Compound 188] | nM | 0.9
Cc1ccc(C(=O)NCCF)cc1C(=O)c1ccc(Nc2ccc(F)cc2F)cc1 [Compound 163] | nM | 2.5
COC(=O)CCC(=O)CNC(=O)c1ccc(C)c(C(=O)c2ccc(Nc3ccc(F)cc3F)cc2Cl)c1 [Compound 167] | nM | 1.7
Cc1ccc(C(=O)N[C@H]2CC[C@@H](O)CC2)cc1C(=O)c1ccc(Nc2ccc(Cl)cc2F)cc1Cl [Compound 135] | nM | 4
Cc1ccc(C(=O)NC(C)(CO)CO)cc1C(=O)c1ccc(Nc2ccc(F)cc2F)cc1Cl [Compound 157] | nM | 2.2
Cc1ccc(C(=O)NC(C)C)cc1C(=O)c1ccc(Nc2ccc(F)cc2F)cc1Cl [Compound 164] | nM | 1.3
Cc1ccc(C(=O)NCC(F)F)cc1C(=O)c1ccc(Nc2ccc(F)cc2F)cc1Cl [Compound 166] | nM | 0.5
COc1ccc(C(=O)NCC(O)CO)cc1C(=O)c1ccc(Nc2ccc(F)cc2)cc1Cl (stereo not shown) [Compound 198] | nM | 1.1
CCOC(=O)CNC(=O)c1ccc(OC)c(C(=O)c2ccc(Nc3c(F)cccc3F)cc2Cl)c1 [Compound 182] | nM | 8.9
CCOC(=O)CCNC(=O)Nc1ccc(C)c(C(=O)c2ccc(Nc3ccc(F)cc3F)cc2Cl)c1 [Compound 265] | nM | 1

a: COc1ccc(COC(C)=O)cc1C(=O)c1ccc(Nc2ccc(F)cc2F)cc1Cl [Compound 336]
b: CC(=O)Nc1cccc(-c2ccc(C)c(C(=O)c3ccc(Nc4ccc(F)cc4F)cc3Cl)c2)c1 [Compound 285]
stdin: Of a and b , whose reported IC50 is the larger number? Selection: enter the item's label.
stdout: a
(a: 5 nM, b: 1.4 nM)

====

tested on: IL-1β; assay: Inhibition of IL-1β secretion in LPS stimulated peripheral blood mononuclear cells; format: cell-based; conditions: PBMC; LPS stimulated human peripheral blood mononuclear cells, 18 hours, ELISA; read-out: The median inhibition concentration (IC50, nM) of IL-1β
ASSAY READOUT: IC50 (nM)

RECORD SMILES | MEASURED NUMBER
CNC(=O)c1ccc(C)c(C(=O)c2ccc(Nc3ccc(Cl)cc3F)cc2Cl)c1 | 2.8
COc1ccc(C(=O)NCCO)cc1C(=O)c1ccc(Nc2c(F)cccc2F)cc1Cl | 2.5
Cc1ccc(C(=O)NCC(N)=O)cc1C(=O)c1ccc(Nc2ccc(F)cc2F)cc1Cl | 1.3

A: Cc1ccc(C(=O)NCCCO)cc1C(=O)c1ccc(Nc2ccc(F)cc2F)cc1Cl
B: Cc1cc(F)ccc1Nc1ccc(C(=O)c2cc(C(=O)NCCCN3CCOCC3)ccc2C)c(Cl)c1
C: Cc1ccc(NC(=O)NC(C)C)cc1C(=O)c1ccc(Nc2ccc(F)cc2F)cc1Cl
D: COc1cccc(NC(=O)Nc2ccc(C)c(C(=O)c3ccc(Nc4ccc(F)cc4F)cc3Cl)c2)c1
stdin: Arrange the 4 molecules from largest to smallest IC50. Would you mind listing the labels in the order requested?
stdout: C, B, D, A

====

system: TNF-α; assay: Inhibition of TNF-α secretion in LPS stimulated peripheral blood mononuclear cells; type: cell-based; conditions: PBMC; LPS stimulated human peripheral blood mononuclear cells, 18 hours, ELISA; read-out: The median inhibition concentration (IC50, nM) of TNF-α
ASSAY READOUT: IC50 (nM)

Consider the worked cases shown below.
COMPOUND | UNITS | IC50
CCNC(=O)c1ccc(C)c(C(=O)c2ccc(Nc3ccc(F)cc3F)cc2Cl)c1 [Compound 149] | nM | 0.5
Cc1cc(F)ccc1Nc1ccc(C(=O)c2cc(C(=O)NCCO)ccc2C)c(Cl)c1 [Compound 119] | nM | 0.4
Cc1ccc(C(=O)NCC(N)=O)cc1C(=O)c1ccc(Nc2ccc(F)cc2F)cc1Cl [Compound 145] | nM | 0.3
COc1ccc(C(=O)NCC(O)CO)cc1C(=O)c1ccc(Nc2ccc(F)cc2F)cc1Cl (centres unmarked) [Compound 143] | nM | 1.6
Cc1ccc(NC(=O)CC2NC(=O)NC2=O)cc1C(=O)c1ccc(Nc2ccc(F)cc2F)cc1Cl (centres unmarked) [Compound 248] | nM | 0.7
CCNC(=O)c1ccc(C)c(C(=O)c2ccc(Nc3ccccc3N)cc2Cl)c1 [Compound 117] | nM | 1
Cc1ccc(NC(=O)NCCO)cc1C(=O)c1ccc(Nc2ccc(F)cc2F)cc1Cl [Compound 260] | nM | 0.5
Cc1ccc(-c2cccc(CO)c2)cc1C(=O)c1ccc(Nc2ccc(F)cc2F)cc1Cl [Compound 282] | nM | 0.6
Cc1ccc(C(=O)NCC(F)(F)F)cc1C(=O)c1ccc(Nc2ccc(F)cc2F)cc1Cl [Compound 148] | nM | 0.2
COc1ccc(C(=O)NCC(F)F)cc1C(=O)c1ccc(Nc2ccc(F)cc2F)cc1Cl [Compound 141] | nM | 0.6

1: COc1ccc(C(=O)NCC(N)=O)cc1C(=O)c1ccc(Nc2ccccc2)cc1Cl [Compound 203]
2: Cc1ccc(C(=O)N[C@H]2CC[C@@H](O)CC2)cc1C(=O)c1ccc(Nc2ccc(Cl)cc2F)cc1Cl [Compound 135]
stdin: // compare measured IC50 between 1 and 2 ; output the lower one Selection: enter the item's label.
stdout: 2

1: CCOC(=O)CNC(=O)c1ccc(OC)c(C(=O)c2ccc(Nc3c(F)cccc3F)cc2Cl)c1 [Compound 182]
2: COCCC(=O)Nc1ccc(C)c(C(=O)c2ccc(Nc3ccc(F)cc3F)cc2Cl)c1 [Compound 241]
stdin: // compare measured IC50 between 1 and 2 ; output the lower one Selection: enter the item's label.
stdout: 2
(2: 0.3 nM, 1: 2.2 nM)

P: Cc1ccc(C(=O)NCCO)cc1C(=O)c1ccc(Nc2ccc(Cl)cc2F)cc1Cl [Compound 120]
Q: COCCNC(=O)c1ccc(C)c(C(=O)c2ccc(Nc3ccc(F)cc3C)cc2Cl)c1 [Compound 106]
R: Cc1ccc(C(=O)NCCO)cc1C(=O)c1ccc(Nc2ccccc2)cc1Cl [Compound 191]
S: CCOC(=O)CCNC(=O)Nc1ccc(C)c(C(=O)c2ccc(Nc3ccc(F)cc3F)cc2Cl)c1 [Compound 265]
stdin: Arrange the 4 compounds from largest to smallest IC50. Would you mind listing the labels in the order requested?
stdout: P, Q, R, S

1: COc1ccc(C(=O)NCCCO)cc1C(=O)c1ccc(Nc2c(F)cccc2F)cc1Cl [Compound 176]
2: CSCCC(=O)Nc1ccc(C)c(C(=O)c2ccc(Nc3ccc(F)cc3F)cc2Cl)c1 [Compound 251]
3: Cc1cc(F)ccc1Nc1ccc(C(=O)c2cc(C(=O)NCc3ccncc3)ccc2C)c(Cl)c1 [Compound 109]
4: Cc1ccc(C(=O)NCCO)cc1C(=O)c1ccc(Nc2ccccc2N)cc1Cl [Compound 112]
5: CCOC(=O)CNC(=O)c1ccc(C)c(C(=O)c2ccc(Nc3ccc(F)cc3F)cc2Cl)c1 [Compound 158]
stdin: Arrange the 5 compounds from largest to smallest IC50. Would you mind listing the labels in the order requested?
stdout: 3, 1, 4, 2, 5
(3: 3.2 nM, 1: 2 nM, 4: 0.6 nM, 2: 0.4 nM, 5: 0.2 nM)

1: Cc1ccc(C(=O)NCCO)cc1C(=O)c1ccc(Nc2cccc(F)c2)cc1Cl [Compound 193]
2: Cc1ccc(NC(=O)Nc2cccc(C(F)(F)F)c2)cc1C(=O)c1ccc(Nc2ccc(F)cc2F)cc1Cl [Compound 263]
3: Cc1ccc(C(=O)NCCO)cc1C(=O)c1ccc(Nc2ccc(F)cc2Cl)cc1Cl [Compound 188]
4: Cc1ccc(C(=O)NC(C)(C)CO)cc1C(=O)c1ccc(Nc2ccc(F)cc2F)cc1Cl [Compound 156]
stdin: Arrange the 4 compounds from largest to smallest IC50. Would you mind listing the labels in the order requested?
stdout: 1, 2, 4, 3

A: COc1ccc(C(=O)NCC(O)CO)cc1C(=O)c1ccc(Nc2ccccc2)cc1Cl (centres unmarked) [Compound 202]
B: Cc1ccc(C(=O)NCCO)cc1C(=O)c1ccc(Nc2cccc(F)c2C)cc1Cl [Compound 186]
C: Cc1ccc(C(=O)NCC(C)C)cc1C(=O)c1ccc(Nc2ccc(Cl)cc2F)cc1Cl [Compound 129]
stdin: Order by IC50, ascending. Would you mind listing the labels in the order requested?
stdout: B, C, A
